Each recorded value in this set is attributed to patent US20220193132A1.

Target: T1, EGFRvIII amino acid residues 15 to 37 with Ser24 to Ala mutation (human)
T1 construct: mutation is already in the entry
T1 peptide: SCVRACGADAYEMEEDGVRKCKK
Test: yeast display flow cytometry, Myc-normalized;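 note: Anti-EGFRvIII monoclonal antibodies tested by flow cytometry on yeast displaying alanine-substituted fragments, two-color indirect fluorescence with anti-Myc signal tracking fusion protein expression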
metric: % of binding vs wild-type fragment 15-37 (%)
Entry rule: numbers only, all in %.

The following binders have reported results that may help.
- F263-4E11 (antibody, V domains shown, Mouse hybridoma mAb) VH: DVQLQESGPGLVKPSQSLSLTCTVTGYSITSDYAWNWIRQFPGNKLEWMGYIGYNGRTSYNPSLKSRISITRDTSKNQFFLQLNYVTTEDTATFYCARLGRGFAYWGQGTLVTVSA VL: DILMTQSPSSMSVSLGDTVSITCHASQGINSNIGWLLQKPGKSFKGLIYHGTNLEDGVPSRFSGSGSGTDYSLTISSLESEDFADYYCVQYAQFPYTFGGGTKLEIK: 170
- F263-4B3 (antibody, V domains shown, Mouse hybridoma mAb) VH: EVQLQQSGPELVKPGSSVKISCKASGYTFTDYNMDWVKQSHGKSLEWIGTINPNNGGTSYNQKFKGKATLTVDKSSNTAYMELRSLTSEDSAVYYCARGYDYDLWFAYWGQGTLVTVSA VL: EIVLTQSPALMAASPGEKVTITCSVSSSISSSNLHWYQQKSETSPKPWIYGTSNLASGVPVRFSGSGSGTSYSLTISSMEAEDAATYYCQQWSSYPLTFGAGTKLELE: 194
- F263-5D8 (antibody, V domains shown, Mouse hybridoma mAb) VH: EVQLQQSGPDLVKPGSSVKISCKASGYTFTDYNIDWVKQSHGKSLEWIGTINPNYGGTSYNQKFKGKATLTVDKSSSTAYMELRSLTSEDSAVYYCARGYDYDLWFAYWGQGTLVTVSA VL: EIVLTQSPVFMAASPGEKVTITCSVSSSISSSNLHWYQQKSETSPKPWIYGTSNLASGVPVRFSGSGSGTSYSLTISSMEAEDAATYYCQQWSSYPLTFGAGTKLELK: 246

QUERY: Entry under review: F265-9C9 (antibody, V domains shown, Mouse hybridoma mAb) VH: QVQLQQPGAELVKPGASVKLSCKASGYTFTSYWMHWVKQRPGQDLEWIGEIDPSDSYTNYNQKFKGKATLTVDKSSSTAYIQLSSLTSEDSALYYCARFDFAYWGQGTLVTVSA VL: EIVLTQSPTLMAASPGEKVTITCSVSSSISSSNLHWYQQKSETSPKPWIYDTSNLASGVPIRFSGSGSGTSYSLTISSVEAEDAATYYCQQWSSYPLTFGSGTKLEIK . Reported % of binding vs wild-type fragment 15-37?
RESULT: 211
